# GI50 per entry
Test system: NCI-H23
Assay: NCI tumour cell line growth inhibition, 48 h
Activity calls are given as the source filed them. Rule as the data show it: active = GI50 up to about 1.1 µM and inactive = higher.
PROPERTY_LABEL: GI50

[[record]]
molecule = "C=CC[C@]12C=C(OC)[C@@H](O)[C@](OC)(C(c3cc(OC)c4c(c3)OCO4)[C@H]1C)[C@H]2OC(C)=O (stereo partly specified)"
result = "> 100 µM (inactive)"

[[record]]
molecule = "CN(/N=C\\c1ccc2ccccc2c1)C1=NCCCN1"
result = "25.9 µM (inactive)"

[[record]]
molecule = "Nc1cccc(S(=O)(=O)NCC(=O)O)c1"
result = "> 100 µM (inactive)"

[[record]]
molecule = "COc1ccc(-n2c(C)nc3ccc(NC(=S)Nc4ccccc4)cc3c2=O)cc1"
result = "52.7 µM (inactive)"

[[record]]
molecule = "O=S(=O)(c1ccccc1)N1CCCC(c2ccccc2)CC1 (stereo unspecified)"
result = "27.5 µM (inactive)"

[[record]]
molecule = "CCCCNC(=O)OCCN=c1c2ccccc2ccc2ccccc12"
result = "> 100 µM (inactive)"

[[record]]
molecule = "CC1=C(CO)C(=O)O[C@@H]([C@@H](CO)[C@H]2CCC3C4C[C@@H](O)[C@@]5(O)CC=CC(=O)[C@]5(C)C4CC[C@@]32C)C1 (stereo partly specified)"
result = "67.9 µM (inactive)"

[[record]]
molecule = "CCCCNC(=S)Nc1nc(C(=O)NNC(=O)c2ccccc2)cs1"
result = "> 10 µM (inactive)"

[[record]]
molecule = "COc1cc(S(=O)(=O)Nc2ccc(-c3csc(N4C(=O)C(C)SC4c4cccs4)n3)cc2)ccc1Cl (stereo unspecified)"
result = "39.8 µM (inactive)"

[[record]]
molecule = "COc1ccc2cc(C(=O)O)ccc2c1OC"
result = "> 100 µM (inactive)"

[[record]]
molecule = "COc1ccc(NC(=O)C(=O)C2NC(=S)NC2=O)c(OC)c1 (stereo unspecified)"
result = "> 100 µM (inactive)"

[[record]]
molecule = "Cc1ccc(C(=O)Nc2ccc(S(=O)(=O)O)c3cc(S(=O)(=O)O)cc(S(=O)(=O)O)c23)cc1NC(=O)c1cccc(N)c1"
result = "> 100 µM (inactive)"

[[record]]
molecule = "CN(C)CCCOCCn1c2c(c3ccccc31)CCCC2"
result = "15.1 µM (inactive)"

[[record]]
molecule = "COC(=O)CCC1=C(CC(=O)OC)C(C)(OC)N/C1=N/C(=O)OCc1ccccc1 (stereo unspecified)"
result = "> 100 µM (inactive)"

[[record]]
molecule = "O=C(O)CCC1CCc2cccc(O)c2C1=O (stereo unspecified)"
result = "> 100 µM (inactive)"

[[record]]
molecule = "CC1C2CC(CC2O)C1(C)C (stereo unspecified)"
result = "> 100 µM (inactive)"

